System: erythrocyte suspensions of horse blood;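 note: Read-out is hemoglobin release into the supernatant, with a buffer-only blank subtracted as the 0% baseline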
condition.context: 150 µM peptide; horse erythrocytes 5% vol/vol, TRIS buffer pH 7.2, 1 h at 37°C, absorbance 540 nm; relative to melittin 100 μM; ± confidence interval (α = 0.05)
Where a SMILES comes first, the peptide text is derived from it. [ ]: non-standard residue; d: D form. The star is where a group is joined. Butyryl = CCCC(=O)*
Mark Condition met for reported Hemolysis (%) 150 µM of 20% or greater; mark Condition not met for anything smaller.

Query: Is Hemolysis (%) 150 µM at least 20%? Consider CCCC(=O)NCCCC[C@H]1NC(=O)[C@H](CCC(N)=O)NC(=O)[C@H](CC(C)C)NC(=O)[C@H](CCCCN)NC(=O)[C@H](CCCCN)NC(=O)[C@H](Cc2ccccc2)NC(=O)[C@H](CCCCN)NC(=O)[C@H](CCCCN)NC(=O)[C@H](CC(C)C)NC(=O)[C@H](CCCCN)NC1=O [BPC706] (cyclo(FKKLQ[dK](Butyryl)KLKK))
Result: Condition met
